target: Ubiquitin carboxyl-terminal hydrolase 1 (Homo sapiens); assay: Inhibitors of USP1/UAF1: Pilot qHTS (AID 504865); details: purified USP1/UAF1, Ub-rhodamine cleavage fluorescence; series mostly up to 114 µM; also: nearly all actives have a fitted effect of over 35% in size
Inconclusive results are not listed. Activity calls are given as the source filed them. Calls follow the shape of the dose curve; as a rule, active = well fitted inhibition curve with a large enough effect; inconclusive = small, poorly fitted or top-dose-only effect; inactive = flat fitted curve, though single readings scatter.
The categories you may choose from are yes = active, no = inactive

## Task GET /call?item= Clc1ccc(C(c2ccc(Cl)cc2)C(Cl)(Cl)Cl)cc1 returns the recorded outcome of this test.
## Result no

## Task Test call for this compound, please: CC(NC(C)(C)C)C(=O)c1cccc(Cl)c1 (stereo unspecified)
## Result no

## Task Look up the recorded call for CN1C(=O)C(O)N=C(c2ccccc2)c2cc(Cl)ccc21 (stereo unspecified) in this test.
## Result no

## Task Could you kindly confirm the outcome this assay logged for Oc1ccc(Cl)cc1 ?
## Result no

## Task Recorded call for O=P1(N(CCCl)CCCl)NCCCO1 (stereo unspecified) ?
## Result no

## Task Would you mind telling me which call this test gave O=C(O)CCCc1ccc(N(CCCl)CCCl)cc1 ?
## Result no

## Task Please indicate how the test categorized COP(=S)(OC)Oc1ccc(SC)c(C)c1 .
## Result no

## Task Hi, sorry to bother you, what did the test record for FC1(F)C(F)(F)C(F)(F)C2(F)C(F)(F)C(F)(F)C(F)(F)C(F)(F)C2(F)C1(F)F (stereo unspecified) ?
## Result yes

## Task What classification did CC(C)C[C@H]1C(=O)N2CCC[C@H]2[C@]2(O)O[C@](NC(=O)[C@@H]3C=C4c5cccc6[nH]c(Br)c(c56)C[C@H]4N(C)C3)(C(C)C)C(=O)N12 end up with in this test?
## Result no

## Task // return assay outcome for COC1CC(=C(c2cccs2)c2cccs2)C[N+](C)(C)C1 (stereo unspecified)
## Result no

## Task Outcome logged for NNc1ccccc1 in this assay:
## Result no

----------
test: Primary qHTS for inhibitors of nuclear receptor binding SET domain protein 2 (NSD2) in an isogenic RCH-ACV NSD2 p.E1099K mutant (9B) (AID 1645876); conditions: RCH-ACV (leukaemia line) NSD2 E1099K (9B) viability, CellTiter-Glo, 72 h; series mostly up to 44.9 µM; also: nearly all actives have a fitted effect of over 70% in size
Results filed as inconclusive are left out. Calls of active or inactive are those of the source. The call rests on the fitted dose curve; in most records, active means well fitted inhibition curve with a large enough effect; inconclusive means small, poorly fitted or top-dose-only effect; inactive means flat fitted curve, though single readings scatter.
Would you mind answering with one of these outcomes? active, inactive

## Task Each compound tested received a call. Report the one for COc1c2c(cc3c1OCO3)CCN(C)C2 .
## Result inactive

## Task Per the assay record, what outcome was assigned to COC(=O)C(Cl)C(=O)OC ?
## Result inactive

## Task In this assay, the call recorded for O=c1[nH]c2ccccc2n1C1CCNCC1 was what?
## Result inactive

## Task Look up the recorded call for C=CCN1C[C@H](C)N([C@H](c2ccc(C(=O)N(CC)CC)cc2)c2cccc(OC)c2)C[C@H]1C in this test.
## Result inactive

## Task Tell me the recorded outcome of this test for COP(=S)(OC)Oc1ccc(S(=O)(=O)N(C)C)cc1 .
## Result inactive

## Task Can you look up the reported call for COP(=S)(OC)Oc1ccc(SC)c(C)c1 for me?
## Result inactive

## Task I would be grateful if you could indicate the recorded call for COc1cccc2c1C(=O)c1c(O)c3c(c(O)c1C2=O)C[C@@](O)(C(=O)CO)CC3OC1CC(N2CCOC(OC)C2)C(O)C(C)O1 (some centres undefined) .
## Result active

## Task For Cc1ncsc1CCCl , what call appears in the results of this test?
## Result inactive

## Task Which outcome was assigned to COc1ccc2c3c1O[C@H]1[C@H](O)CC[C@H]4[C@@H](C2)N(C)CC[C@@]341 in this test?
## Result inactive

----------
test: S16 Schwann cell PMP22 intronic element firefly luciferase assay (AID 624032); details: S16 rat Schwann cells, PMP22 element FLuc, 24 h; series mostly up to 57.5 µM; also: nearly all actives have a fitted effect of over 30% in size
Inconclusive results are not listed. Activity calls are given as the source filed them. The call rests on the fitted dose curve; in most records, active means well fitted inhibition curve with a large enough effect; inconclusive means small, poorly fitted or top-dose-only effect; inactive means no such curve, though single readings can be large or run the other way.
# output must be one of active, inactive

## Task Recorded call for Nc1ccc([As](=O)(O)O)cc1 ?
## Result inactive

## Task Any idea what this test logged for Oc1ccc(Cl)cc1 ?
## Result inactive

## Task // return assay outcome for O=C1OC(c2ccc(O)c(S(=O)(=O)O)c2)(c2ccc(O)c(S(=O)(=O)O)c2)c2c(Br)c(Br)c(Br)c(Br)c21
## Result inactive

## Task Please indicate how the test categorized CN1C(=O)NC(=O)C(C)(C2=CCCCC2)C1=O (configuration not stated) .
## Result inactive

## Task Entry CN1C(=O)COc2c(C(=O)NC3CN4CCC3CC4)cc(Cl)cc21 (configuration not stated) : call = ?
## Result inactive

## Task Entry C[C@](O)(CS(=O)(=O)c1ccc(F)cc1)C(=O)Nc1ccc(C#N)c(C(F)(F)F)c1 : call = ?
## Result active

## Task What is the recorded call for this compound in the test? CCOC(=O)CC(SP(=S)(OC)OC)C(=O)OCC (configuration not stated)
## Result inactive

----------
Consider the following molecules; for each one, report its activity change, negative = inhibition.
assay: Primary qHTS to identify inhibitors of SARS-CoV-2 cell entry (AID 1645846); conditions: SARS-CoV-2 pseudovirus cell entry assay, luminescence; at 57.1 µM (top of the series) unless noted; also: nearly all actives have a fitted effect of over 45% in size
Records with an inconclusive call do not appear.

## Task Return reported activity change, negative = inhibition; argument: Nc1ccc(S(=O)(=O)Nc2ccnn2-c2ccccc2)cc1
## Result 4.82% [at 27.1 µM]

## Task activity change, negative = inhibition lookup needed for NCCNCCNCCNCCN , thanks.
## Result 4.56% [at 11.3 µM]

## Task Item CC1(C)O[C@H]2CC(=O)OC[C@]23[C@H]2CC[C@@]4(C)[C@H](c5ccoc5)OC(=O)[C@H]5O[C@]54[C@]2(C)C(=O)C[C@@H]13 has what recorded activity change, negative = inhibition?
## Result -13.1%

## Task Record request: activity change, negative = inhibition value, item CCN[C@H]1CN(CCCOC)S(=O)(=O)c2sc(S(N)(=O)=O)cc21
## Result -6.75%

## Task Need activity change, negative = inhibition of NC[C@H]1O[C@H](O[C@H]2[C@H](O[C@@H]3O[C@H](CO)[C@@H](O)[C@H]3O)C(O)[C@H](N)C[C@@H]2N)[C@H](N)[C@@H](O)[C@@H]1O (stereo not given in full) , thanks.
## Result -2.22% [at 11.3 µM]

## Task If you can, please state the reported activity change, negative = inhibition value of CN1C(=O)COc2c(C(=O)NC3CN4CCC3CC4)cc(Cl)cc21 (stereo not given) .
## Result -14.3%

## Task Which activity change, negative = inhibition value is on record for CCCc1c2oc(C(=O)O)cc(=O)c2cc2c(=O)cc(C(=O)O)n(CC)c12 ?
## Result -16.5%

## Task Returns the measured activity change, negative = inhibition for the input molecule. Input: COC1CC(=C(c2cccs2)c2cccs2)C[N+](C)(C)C1 (stereo not given)
## Result -29.5%

## Task Which activity change, negative = inhibition value belongs to CCc1oc2ccccc2c1C(=O)c1cc(I)c(O)c(I)c1 ?
## Result -21.9%

## Task Can you share its activity change, negative = inhibition? I mean this molecule: O=C1[C@@H]2[C@H]3CC[C@H](C3)[C@@H]2C(=O)N1CCCCN1CCN(c2ncccn2)CC1
## Result -0.993%

----------
conditions: Ebola virus entry cell assay, ratio channel
Activity calls are given as the source filed them.
The categories you may choose from are active, inactive

## Task Could you kindly confirm the outcome this assay logged for CN1CCN(CCC=C2c3ccccc3Sc3ccc(S(=O)(=O)N(C)C)cc32)CC1 ?
## Result active

## Task Record lookup: outcome of this test for CC(C)[C@H]1C(=O)N2CCC[C@H]2[C@]2(O)O[C@](NC(=O)[C@@H]3C[C@@H]4c5cccc6[nH]cc(c56)C[C@H]4N(C)C3)(C(C)C)C(=O)N12 ?
## Result inactive

## Task Returns: the outcome recorded for CCCCCCCCCCCCCCCC(=O)OCCC1CCN(CCCN2c3ccccc3Sc3ccc(S(=O)(=O)N(C)C)cc32)CC1 in this assay.
## Result inactive

## Task Given CC(O)(P(=O)(O)O)P(=O)(O)O , state the outcome it received in this test.
## Result inactive

## Task Record request — test call for COCCCOc1ccnc(CS(=O)c2nc3ccccc3[nH]2)c1C (stereo unspecified)
## Result inactive

## Task Per the records of this test, what outcome belongs to CO[C@@H]1[C@@H](O[C@@H]2O[C@H](C)[C@@H](O[C@H]3C[C@@](C)(O)[C@@H](O)[C@H](C)O3)[C@H](N(C)C)[C@H]2O)[C@@H](CC=O)C[C@@H](C)[C@@H](O[C@@H]2CC[C@H](N(C)C)[C@@H](C)O2)/C=C/C=C/C[C@@H](C)OC(=O)C[C@H]1O ?
## Result active

## Task Per the assay record, what outcome was assigned to CCn1cc(C(=O)O)c(=O)c2cc(F)c(N3CCNC(C)C3)c(F)c21 (stereo unspecified) ?
## Result inactive

## Task Returns: the outcome recorded for Cc1nnc2n1-c1ccc(Cl)cc1C(c1ccccc1)=NC2 in this assay.
## Result inactive

## Task Name the outcome recorded for CO[C@@]1(NC(=O)C2SC(=C(C(N)=O)C(=O)O)S2)C(=O)N2C(C(=O)O)=C(CSc3nnnn3C)CS[C@@H]21 (stereo partly specified) in the assay.
## Result inactive

## Task Which outcome did this test record for the molecule CCCc1nc(C(C)(C)O)c(C(=O)OCc2oc(=O)oc2C)n1Cc1ccc(-c2ccccc2-c2nn[nH]n2)cc1 ?
## Result inactive

## Task Would you mind telling me which call this test gave CO/N=C(\C(=O)N[C@@H]1C(=O)N2C(C(=O)O)=C(COC(C)=O)CS[C@H]12)c1csc(N)n1 (stereo in doubt) ?
## Result inactive

## Task Answer briefly: the call reported for Cn1nnc2c(C(N)=O)ncn2c1=O in this assay.
## Result inactive

## Task Could you check what this test reported for COCC1=C(C(=O)OC(C)OC(=O)OC(C)C)N2C(=O)[C@@H](NC(=O)/C(=N\OC)c3csc(N)n3)[C@H]2SC1 (stereo partly specified) ?
## Result inactive

## Task Short answer needed: outcome of this test for CC(C)c1nc(N(C)S(C)(=O)=O)nc(-c2ccc(F)cc2)c1/C=C/C(O)CC(O)CC(=O)O (stereo unspecified) ?
## Result inactive

## Task Hi team, can someone confirm the assay call for CCC[C@@H]1C[C@@H](C(=O)N[C@@H]([C@H]2O[C@H](SC)[C@H](O)[C@@H](O)[C@H]2O)[C@H](C)Cl)N(C)C1 ?
## Result inactive

## Task What was the test verdict on CSCC[C@H](NC(=O)[C@H](Cc1ccc(OS(=O)(=O)O)cc1)NC(=O)[C@@H](N)CC(=O)O)C(=O)NCC(=O)N[C@@H](Cc1c[nH]c2ccccc12)C(=O)N[C@@H](CCSC)C(=O)N[C@@H](CC(=O)O)C(=O)N[C@@H](Cc1ccccc1)C(N)=O ?
## Result inactive

## Task In this assay, the call recorded for COc1cc([C@@H]2c3cc4c(cc3C(O[C@@H]3O[C@@H]5CO[C@@H](C)O[C@H]5[C@H](O)[C@H]3O)C3COC(=O)[C@@H]32)OCO4)cc(OC)c1OP(=O)(O)O (stereo partly specified) was what?
## Result active

## Task For this molecule, state the assay outcome: Nc1nc(=O)n([C@@H]2CS[C@H](CO)O2)cc1F
## Result inactive

## Task # lookup: test call for CC(CCc1ccccc1)NCC(O)c1ccc(O)c(C(N)=O)c1 (stereo unspecified)
## Result inactive

## Task Answer briefly: the call reported for CC(=O)N1CCN(c2ccc(OC[C@H]3CO[C@](Cn4ccnc4)(c4ccc(Cl)cc4Cl)O3)cc2)CC1 in this assay.
## Result inactive

## Task Could you kindly confirm the outcome this assay logged for CC(C)(O/N=C(\C(=O)N[C@@H]1C(=O)N2C(C(=O)[O-])=C(C[n+]3ccccc3)CS[C@H]12)c1csc(N)n1)C(=O)O ?
## Result inactive

## Task Dear colleague, could you share the recorded outcome for CO[C@H]1C[C@@H]2CC[C@@H](C)[C@@](O)(O2)C(=O)C(=O)N2CCCC[C@@H]2C(=O)O[C@H]([C@H](C)C[C@@H]2CC[C@H](OCCO)[C@H](OC)C2)CC(=O)[C@H](C)C=C(C)[C@@H](O)[C@@H](OC)C(=O)[C@H](C)C[C@H](C)C=CC=CC=C1C when you have a moment?
## Result active

## Task For Nc1ccc(S(=O)(=O)c2ccc(N)cc2)cc1 , which call appears in the assay record?
## Result inactive

## Task Query: recorded result category for C#CCN[C@@H]1CCc2ccccc21 in this test
## Result inactive

## Task Test call for this molecule, please: CC1COc2c(N3CCN(C)CC3)c(F)cc3c(=O)c(C(=O)O)cn1c23 (stereo unspecified)
## Result inactive

## Task Outcome logged for CCOC(=O)C1=C(COCCN)NC(C)=C(C(=O)OC)C1c1ccccc1Cl (stereo unspecified) in this assay:
## Result inactive
